target-entity: LINGO-1 (human) (UniProt Q96FE5)
assay-comment: ELISA
property-measured: ELISA Signal
Just the number.

binder="Li62 variant B12 Fab (VH CDR3 SEQ ID NO:18) (Fab, V domains shown) VH: EVQLLESGGGLVQPGGSLRLSCAASGFTFSIYPMFWVRQAPGKGLEWVSWIGPSGGITKYADSVKGRFTISRDNSKNTLYLQMNSLRAEDTATYYCAREGQYDWYFDVWGRGTLVTVSS VL: DIQMTQSPSFLSASVGDSVAITCRASQDISRYLAWYQQRPGKAPKLLIYDASNLQTGVPSRFSGSGSGTDFTFTITSLQPEDFGTYYCQQYDTLHPSFGPGTTVDIK" property_measured="ELISA Signal" numeric_value=3

Please find the next binder below.
I would be grateful if you could share the reported ELISA Signal for Li62 variant H08 Fab (VH CDR3 SEQ ID NO:28) (Fab, V domains shown) VH: EVQLLESGGGLVQPGGSLRLSCAASGFTFSIYPMFWVRQAPGKGLEWVSWIGPSGGITKYADSVKGRFTISRDNSKNTLYLQMNSLRAEDTATYYCAREGHYNGYFDLWGRGTLVTVSS VL: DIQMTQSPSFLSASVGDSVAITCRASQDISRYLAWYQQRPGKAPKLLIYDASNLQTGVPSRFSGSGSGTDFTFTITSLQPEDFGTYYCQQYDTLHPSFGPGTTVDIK .
0.5
